- target.system: hα2C receptor (Homo sapiens)
- Construct: expressed in transfected cells; host or cells: CHO cells, stably transfected; membrane preparation
- Sequence (P18825 1-462): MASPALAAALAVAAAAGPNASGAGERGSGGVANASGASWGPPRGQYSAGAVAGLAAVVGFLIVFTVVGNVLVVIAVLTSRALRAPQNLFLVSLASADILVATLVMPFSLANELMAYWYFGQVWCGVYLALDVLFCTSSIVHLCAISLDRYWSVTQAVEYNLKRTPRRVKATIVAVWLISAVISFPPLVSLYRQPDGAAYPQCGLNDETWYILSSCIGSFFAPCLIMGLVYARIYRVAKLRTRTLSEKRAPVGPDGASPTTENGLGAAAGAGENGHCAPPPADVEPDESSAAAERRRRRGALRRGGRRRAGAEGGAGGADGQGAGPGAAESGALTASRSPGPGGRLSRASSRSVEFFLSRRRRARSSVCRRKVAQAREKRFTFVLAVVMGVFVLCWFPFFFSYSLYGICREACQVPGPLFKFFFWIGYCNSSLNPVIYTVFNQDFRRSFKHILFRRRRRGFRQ
- experiment.summary: Radioligand binding experiment for α2C-adrenoceptor ([3H]raulwolscine, CHO cell membranes)
- details: [3H]raulwolscine binding, read-out: h-α2C pIC50 (converted)
Exam item: assign Condition met to entries whose IC50 is below 8 nM and Condition not met to entries at or above 8 nM. Note that a value of exactly 8 nM receives Condition not met.

molecule	class.assignment
C/C(=C\c1ccccc1)CN1CCC(Nc2nccn(CC(=O)NCc3ccccc3)c2=O)CC1 [1-48]	Condition met
CN(C)CCCn1ccnc(NC2CCN(C/C=C/c3ccccc3)CC2)c1=O [16-2]	Condition not met
C/C(=C\c1ccccc1)CN1CCC(Nc2nccn(C/C=C/CN3C(=O)c4ccccc4C3=O)c2=O)CC1 [2-52]	Condition met
C/C(=C\c1ccccc1)CN1CCC(Nc2nccn(Cc3ccc(C)cc3)c2=O)CC1 [5-9]	Condition not met
C/C(=C\c1ccccc1)CN1CCC(Nc2nccn(Cc3ccccc3-c3ccccc3)c2=O)CC1 [5-31]	Condition not met
C/C(=C\c1ccccc1)CN1CCN(c2nccn(CCOCc3ccccc3)c2=O)CC1 [10-3]	Condition not met
C/C(=C\c1ccccc1)CN1CCC(Nc2nccn(Cc3ccc4ccccc4c3)c2=O)CC1 [5-35]	Condition not met
